meta.source: patent US10034886B2

Molecular target: GLP-1R (Homo sapiens, UniProt P43220)
Construct: host or cells: GLP-1R CRE-bla CHO-K1 cells
Sequence (P43220 24-463): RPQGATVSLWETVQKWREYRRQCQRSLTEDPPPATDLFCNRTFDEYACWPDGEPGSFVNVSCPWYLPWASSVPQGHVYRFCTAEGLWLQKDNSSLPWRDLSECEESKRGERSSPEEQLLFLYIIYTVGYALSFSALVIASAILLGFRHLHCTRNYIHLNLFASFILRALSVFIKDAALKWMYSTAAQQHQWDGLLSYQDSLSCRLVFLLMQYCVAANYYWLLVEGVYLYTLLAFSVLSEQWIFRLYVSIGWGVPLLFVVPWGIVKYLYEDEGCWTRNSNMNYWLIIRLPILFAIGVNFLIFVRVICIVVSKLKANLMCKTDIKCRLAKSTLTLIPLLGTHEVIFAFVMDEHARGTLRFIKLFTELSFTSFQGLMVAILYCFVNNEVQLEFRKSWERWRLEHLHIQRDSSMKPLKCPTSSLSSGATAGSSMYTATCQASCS
Sequence (P01275 100-127 partner limits assumed): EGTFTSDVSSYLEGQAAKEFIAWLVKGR
Experiment: EC20 GLP-1(9-36) PAM cAMP assay: dose response of compound in the presence of fixed concentration of GLP-1(9-36)
Format: cell-based
Details: dose response of compound in presence of fixed concentration of GLP-1(9-36), GLP-1R CRE-bla CHO-K1 cells, read-out: EC20 GLP-1(9-36) PAM EC50
pEC50: −log10 of the molar value.

{"compound": "COc1ccc(-c2cnc(-c3ccc(C[C@H](NC(=O)c4ccc(C(C)(C)C)s4)C(=O)N[C@H](C)C(=O)O)cc3)nc2)c(F)c1OCC(C)C", "pEC50": "5.00 to 5.30"}
{"compound": "CC[C@H]1CC[C@H](c2ccc(-c3cnc(-c4ccc(C[C@H](NC(=O)c5ccc(C6(C)CC6)cc5)C(=O)N5CC(C(=O)O)C5)cc4)nc3)cc2)CC1", "pEC50": "> 6.10"}
{"compound": "CC(C)(C)c1ccc(C(=O)N[C@@H](Cc2ccc(-c3ncc(-c4ccc(-c5ccc(Cl)c(Cl)c5)cc4F)cn3)cc2)C(=O)N2CC(C(=O)O)C2)s1", "pEC50": "> 6.10"}
{"compound": "CCCCCCCOc1ccc(-c2cnc(-c3ccc(C[C@H](NC(=O)c4ccc(C(C)(C)C)s4)C(=O)NS(N)(=O)=O)cc3)nc2)cc1", "pEC50": "5.60 to 6.10"}
{"compound": "CC(C)COc1ncc(-c2cnc(-c3ccc(C[C@H](NC(=O)c4ccc(C(C)(C)C)s4)C(=O)N[C@H](C)C(=O)O)cc3)nc2)cc1Cl", "pEC50": "5.30 to 5.60"}
{"compound": "CCCCCCCOc1ccc(-c2cnc(-c3ccc(C[C@H](NC(=O)c4ccc(C(C)(C)C)s4)C(=O)NC(C(=O)O)C(O)c4cn(C)cn4)cc3)nc2)cc1 (stereo partly drawn)", "pEC50": "5.30 to 5.60"}

* * *

Target: GLP-1R (Homo sapiens, UniProt P43220)
Construct: host or cells: GLP-1R CRE-bla CHO-K1 cells
Experiment: EC20 GLP-1(9-36) PAM cAMP assay: dose response of compound in the presence of fixed concentration of GLP-1(9-36)
Assay type: cell-based
Conditions: dose response of compound in presence of fixed concentration of GLP-1(9-36), GLP-1R CRE-bla CHO-K1 cells, read-out: EC20 GLP-1(9-36) PAM EC50
readout label: EC50

{"molecule": "CCCCCCCOc1ccc(-c2cnc(-c3ccc(C[C@H](NC(=O)c4ccc(C(C)(C)C)s4)C(=O)NCC(O)CO)cc3)nc2)cc1 (stereo partly drawn) [Compound 462]", "result": "5 to 10 µM"}
{"molecule": "CCCCCCCOc1ccc(-c2cnc(-c3ccc(C[C@H](NC(=O)c4ccc(C(C)(C)C)s4)C(=O)O)cc3)c(C)c2)cc1 [Compound 946]", "result": "2.5 to 5 µM"}
{"molecule": "Cc1cccc(-c2ccc(-c3cnc(-c4ccc(C[C@H](NC(=O)c5ccc(C(C)(C)C)s5)C(=O)N[C@H](C)C(=O)O)cc4)nc3)cc2F)c1 [Compound 1141]", "result": "< 0.8 µM"}
{"molecule": "CCCCCCCOc1ccc(-c2cnc(-c3ccc(C[C@H](NC(=O)c4ccc(C(C)(C)C)cc4)C(=O)NC(C(=O)O)c4cccc(C(F)(F)F)c4)cc3)nc2)cc1 (stereo partly drawn) [Compound 545]", "result": "< 0.8 µM"}
{"molecule": "CCCCCCCOc1ccc(-c2cnc(-c3ccc(C[C@H](NC(=O)c4ccc(CCCC)cc4)C(=O)N[C@H](C)C(=O)O)cc3)nc2)cc1 [Compound 819]", "result": "2.5 to 5 µM"}
{"molecule": "CCCCCCCOc1ccc(-c2cnc(-c3ccc(C[C@H](NC(=O)c4ccc(C(C)(C)C)cc4)C(=O)N[C@@H](CC(=O)N[C@@H](C)C(=O)O)C(=O)O)cc3)nc2)cc1 [Compound 483]", "result": "0.8 to 2.5 µM"}

* * *

Molecular target: GLP-1R (Homo sapiens, UniProt P43220)
Construct: host or cells: GLP-1R CRE-bla CHO-K1 cells
Experiment: EC20 GLP-1(9-36) PAM cAMP assay: dose response of compound in the presence of fixed concentration of GLP-1(9-36)
Format: cell-based
Details: dose response of compound in presence of fixed concentration of GLP-1(9-36), GLP-1R CRE-bla CHO-K1 cells, read-out: EC20 GLP-1(9-36) PAM EC50
pEC50: −log10 of the molar value.

{"molecular string": "CC(C)(C)c1ccc(C(=O)N[C@@H](Cc2ccc(-c3ncc(-c4ccc(OC5CCCCC5)cc4)cn3)cc2)C(=O)N2CC(C(=O)O)C2)s1", "pEC50": "5.00 to 5.30"}
{"molecular string": "CCCCCCCOc1ccc(-c2cnc(-c3ccc(C[C@H](NC(=O)c4ccc(C(C)(C)C)s4)C(=O)N[C@@H](CC(=O)NCC(N)=O)C(=O)O)cc3)nc2)cc1", "pEC50": "5.60 to 6.10"}
{"molecular string": "CCCCCCCOc1cc(C)c(-c2cnc(-c3ccc(C[C@H](NC(=O)c4ccc(C(C)(C)C)s4)C(=O)N[C@H](C)C(=O)O)cc3)nc2)c(C)c1", "pEC50": "5.60 to 6.10"}
{"molecular string": "CCCCCCCOc1ccc(-c2cnc(-c3ccc(C[C@H](NC(=O)c4ccc(C(C)(C)C)s4)C(=O)NCCNC(C)=O)cc3)nc2)cc1", "pEC50": "5.60 to 6.10"}
{"molecular string": "CC(C)(C)c1ccc(C(=O)N[C@@H](Cc2ccc(-c3ncc(-c4ccc(C5CCOCC5)cc4)cn3)cc2)C(=O)N2CC(C(=O)O)C2)s1", "pEC50": "5.30 to 5.60"}
{"molecular string": "CCCCCCCOc1ccc(-c2cnc(-c3ccc(C[C@H](NC(=O)c4ccc(C(C)(C)C)cc4)C(=O)N4C[C@H](O)C[C@@H]4C(=O)O)cc3)nc2)cc1", "pEC50": "5.60 to 6.10"}

* * *

Listed next: entries and their corresponding EC50.
Target: GLP-1R (Homo sapiens)
Construct: host or cells: GLP-1R CRE-bla CHO-K1 cells
Assay: EC20 GLP-1(9-36) PAM cAMP assay: dose response of compound in the presence of fixed concentration of GLP-1(9-36)
Assay type: cell-based
Conditions: GLP-1R CRE-bla CHO-K1 cells, compound dose response with fixed concentration of GLP-1(9-36), read-out: EC20 GLP-1(9-36) PAM EC50
From the text: EC20 GLP-1(9-36) PAM cAMP Assay: Dose Response of Compound in the Presence of Fixed Concentration of GLP-1 (9-36). […]
readout label: EC50

{"compound": "CCC[C@H]1CC[C@H](C2CCN(c3cnc(-c4ccc(C[C@H](NC(=O)c5ccc(C(C)(C)C)s5)C(=O)NC(C)(C)C(=O)O)cc4)nc3)CC2)CC1 [Compound 1466]", "readout label": "EC50", "result": "< 0.8 µM"}
{"compound": "CC(C)(C)c1ccc(C(=O)N[C@@H](Cc2ccc(-c3ncc(-c4ccc([C@H]5CC[C@H](C)CC5)cc4)cn3)cc2)C(=O)O)s1 [Compound 1358]", "readout label": "EC50", "result": "2.5 to 5 µM"}
{"compound": "CCC[C@H]1CC[C@H](C2CC(=O)N(c3cnc(-c4ccc(C[C@H](NC(=O)c5ccc(C(C)(C)C)s5)C(=O)N5CC(C(=O)O)C5)cc4)nc3)C(=O)C2)CC1 [Compound 1512]", "readout label": "EC50", "result": "< 0.8 µM"}
{"compound": "CCCc1ccc(-c2ccc(-c3cnc(-c4ccc(C[C@H](NC(=O)c5ccc(C(C)(C)C)cc5)C(=O)N5CC(C(=O)O)C5)cc4)nc3)c(F)c2)cc1 [Compound 1399]", "readout label": "EC50", "result": "< 0.8 µM"}
{"compound": "CC(C)(C)c1ccc(C(=O)N[C@@H](Cc2ccc(-c3ncc(-c4ccc(-c5ccccc5OC(F)(F)F)cc4F)cn3)cc2)C(=O)N2CC(C(=O)O)C2)s1 [Compound 1224]", "readout label": "EC50", "result": "< 0.8 µM"}
{"compound": "CCCOc1ccc(C(=O)N[C@@H](Cc2ccc(-c3ncc(-c4ccc(OCCCC(C)C)cc4)cn3)cc2)C(=O)N2CC(C(=O)O)C2)cc1 [Compound 1235]", "readout label": "EC50", "result": "2.5 to 5 µM"}
{"compound": "CC(C)(C)c1ccc(C(=O)N[C@@H](Cc2ccc(-c3ncc(-c4ccc(-c5ccccc5)c(F)c4)cn3)cc2)C(=O)O)s1 [Compound 1351]", "readout label": "EC50", "result": "2.5 to 5 µM"}
{"compound": "COc1cc(/C=C/c2cnc(-c3ccc(C[C@H](NC(=O)c4ccc(C(C)(C)C)s4)C(=O)N[C@H](C)C(=O)O)cc3)nc2)cc(OC)c1 [Compound 1259]", "readout label": "EC50", "result": "5 to 10 µM"}
{"compound": "CC[C@H]1CC[C@H](c2ccc(-c3cnc(-c4ccc(C[C@H](NC(=O)c5ccc(C6(C#N)CC6)s5)C(=O)N5CC(C(=O)O)C5)cc4)nc3)cc2)CC1 [Compound 1340]", "readout label": "EC50", "result": "< 0.8 µM"}
{"compound": "Cc1ccc(-c2ccc(-c3cnc(-c4ccc(C[C@H](NC(=O)c5ccc(C(C)(C)C)s5)C(=O)N5CC(C(=O)O)C5)cc4)nc3)c(F)c2)c(F)c1 [Compound 1204]", "readout label": "EC50", "result": "< 0.8 µM"}
{"compound": "CC[C@H]1CC[C@H](c2ccc(-c3cnc(-c4ccc(C[C@H](NC(=O)c5ccc(C(C)(C)C)s5)C(=O)N5CC(C(=O)O)C5)cc4)nn3)cc2)CC1 [Compound 1337]", "readout label": "EC50", "result": "< 0.8 µM"}
{"compound": "CCc1ccc(/C=C\\c2cnc(-c3ccc(C[C@H](NC(=O)c4ccc(C(C)(C)C)s4)C(=O)N[C@H](C)C(=O)O)cc3)nc2)cc1 [Compound 1277]", "readout label": "EC50", "result": "0.8 to 2.5 µM"}
{"compound": "CCC[C@H]1CC[C@H](C2CCN(c3cnc(-c4ccc(C[C@H](NC(=O)c5ccc(CC(C)C)s5)C(=O)N5CC(C(=O)O)C5)cc4)nc3)CC2)CC1 [Compound 1522]", "readout label": "EC50", "result": "< 0.8 µM"}
{"compound": "CCC[C@H]1CC[C@H](C2CCN(c3cnc(-c4ccc(C[C@H](NC(=O)c5ccc(C(C)(C)C)s5)C(=O)NC(CCCOC)C(=O)O)cc4)nc3)CC2)CC1 (stereo partly shown) [Compound 1458]", "readout label": "EC50", "result": "< 0.8 µM"}
{"compound": "COCCc1ccc(C2CCN(c3cnc(-c4ccc(C[C@H](NC(=O)c5ccc(C(C)(C)C)s5)C(=O)N5CC(C(=O)O)C5)cc4)nc3)CC2)cc1 [Compound 1495]", "readout label": "EC50", "result": "0.8 to 2.5 µM"}
{"compound": "CCCCc1ccc(/C=C/c2cnc(-c3ccc(C[C@H](NC(=O)c4ccc(C(C)(C)C)s4)C(=O)N[C@H](C)C(=O)O)cc3)nc2)cc1 [Compound 1262]", "readout label": "EC50", "result": "0.8 to 2.5 µM"}
{"compound": "CCc1ccc(C(=O)N[C@@H](Cc2ccc(-c3ncc(-c4ccc(OCCCC(C)C)cc4)cn3)cc2)C(=O)N2CC(C(=O)O)C2)nc1 [Compound 1245]", "readout label": "EC50", "result": "2.5 to 5 µM"}
{"compound": "CC(C)(C)c1ccc(C(=O)N[C@@H](Cc2ccc(-c3ncc(-c4ccc(-c5ccc(C(F)(F)F)cc5F)cc4F)cn3)cc2)C(=O)N2CC(C(=O)O)C2)s1 [Compound 1222]", "readout label": "EC50", "result": "< 0.8 µM"}
{"compound": "COc1ccc(C2CCN(c3cnc(-c4ccc(CC(NC(=O)c5ccc(C(C)(C)C)s5)C(=O)N5CC(C(=O)O)C5)cc4)nc3)CC2)cc1 (stereo not shown) [Compound 1489]", "readout label": "EC50", "result": "< 0.8 µM"}
{"compound": "CCCCOc1ccc(-c2ccc(-c3cnc(-c4ccc(C[C@H](NC(=O)c5ccc(C(C)(C)C)s5)C(=O)N5CC(C(=O)O)C5)cc4)nc3)c(F)c2)cc1 [Compound 1332]", "readout label": "EC50", "result": "< 0.8 µM"}
{"compound": "CCC1CCC(C2CCN(c3cnc(-c4ccc(C[C@H](NC(=O)c5ccc(C(C)(C)C)s5)C(=O)N5CC(C(=O)O)C5)cc4)nc3)CC2)CC1 (stereo partly shown) [Compound 1429]", "readout label": "EC50", "result": "< 0.8 µM"}
{"compound": "CC(C)CCCOc1ccc(-c2cnc(-c3ccc(C[C@H](NC(=O)c4ccc(S(C)(=O)=O)s4)C(=O)N4CC(C(=O)O)C4)cc3)nc2)cc1 [Compound 1246]", "readout label": "EC50", "result": "< 0.8 µM"}
